# Read-out: Interleukin-8 (IL8), CXCL8 (gene 3576)
# Test name: BSK_hDFCGF_IL8: BioMAP Diversity Plus: hDFCGF Assay for Interleukin-8 (IL8) Biomarker Activity (AID 2283058)
# Setup conditions: primary human foreskin fibroblasts; actives raise or lower the signal
The source made the active and inactive calls. How the source made its calls: active means hit-call score of the fitted dose curve at least 0.9, where 1 is the maximum; inactive means score below 0.9.
Measurement kind: outcome

Known results for compounds:
O=C1OC(c2ccc(O)cc2)(c2ccc(O)cc2)c2ccccc21: inactive
COc1ccc(OC(F)(F)F)cc1CN[C@H]1CCCN[C@H]1c1ccccc1: inactive
CC(=O)S[C@H](C(=O)N[C@H]1Cc2ccccc2[C@H]2CCC[C@@H](C(=O)O)N2C1=O)C(C)C: inactive
N[C@@H](Cc1c[nH]c2ccccc12)C(=O)O: inactive
Oc1ccccc1O: inactive
CC(=O)[C@@]1(O)CC[C@H]2[C@@H]3CCC4=CC(=O)CC[C@]4(C)[C@H]3CC[C@@]21C: inactive

**Query** // returns reported outcome for input Nc1nc(Cl)nc2c1ncn2[C@H]1C[C@H](O)[C@@H](CO)O1
**Result** inactive

**Query** Endpoint output: outcome of Nc1nc(=S)c2[nH]cnc2[nH]1 . Value?
**Result** inactive

**Query** Which value of outcome has been reported for CC(=O)O in the records?
**Result** inactive

**Query** # outcome lookup, item CCCCC(CC)COP(=O)(OCC(CC)CCCC)OCC(CC)CCCC (configuration not stated)
**Result** inactive

**Query** Recorded outcome of O=C(O)c1cccnc1 , please.
**Result** inactive

**Query** Looking for the measured outcome of NC1CCCCC1 , can you help?
**Result** inactive

====

# Read-out: Intercellular Adhesion Molecule 1 (ICAM1), ICAM1 (gene 3383)
# Test name: LTEA_HepaRG_ICAM1: Life Technologies and Expression Analysis (LTEA) Assay for Intercellular Adhesion Molecule 1 (ICAM1) using HepaRG (AID 2283507)
# Setup conditions: mRNA level, 48 h; actives raise or lower the signal
Active and inactive are the calls of the source. How the source made its calls: active means hit-call score of the fitted dose curve at least 0.9, where 1 is the maximum; inactive means score below 0.9.
Can you answer with just one of these options? active, inactive

CC(C)COC(=O)CCCCC(=O)OCC(C)C: inactive
CCCCCCC(C=O)=Cc1ccccc1: inactive
CC(C)c1cccc(C(C)C)c1NC(=O)NS(=O)(=O)c1cc(C(C)(C)O)co1: inactive

Okay, now this compound:
**Query** Status in this test for Cc1occc(=O)c1O ?
**Result** inactive

====

# Target: human Opioid Receptor Delta 1 (Opiate D1), OPRD1 (gene 4985) (UniProt P41143)
# Sequence (P41143 whole entry, looked up): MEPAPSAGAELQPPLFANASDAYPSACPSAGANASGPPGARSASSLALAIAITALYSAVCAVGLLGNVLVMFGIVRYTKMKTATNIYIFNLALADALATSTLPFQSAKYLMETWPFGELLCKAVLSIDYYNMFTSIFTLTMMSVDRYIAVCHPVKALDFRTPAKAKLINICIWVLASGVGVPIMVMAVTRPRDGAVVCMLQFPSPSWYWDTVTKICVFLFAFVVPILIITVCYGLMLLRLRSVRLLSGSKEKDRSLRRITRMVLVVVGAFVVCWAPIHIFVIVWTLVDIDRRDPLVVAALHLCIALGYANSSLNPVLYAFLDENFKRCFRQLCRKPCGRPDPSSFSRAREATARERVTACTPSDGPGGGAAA
# Test name: NVS_GPCR_hOpiate_D1: NovaScreen (NVS) G Protein-Coupled Receptor Assay for human Opioid Receptor Delta 1 (Opiate D1) (AID 2283280)
Records with an inconclusive call do not appear. Calls of active or inactive are those of the source. The calls were made as follows: active = hit-call score of the fitted dose curve at least 0.9, where 1 is the maximum; inconclusive = response in the unintended direction; inactive = score below 0.9.
Hello, when you answer, please use one of the following outcomes: active, inactive

Solved entries:
CSc1ccc(Oc2ccc(S(N)(=O)=O)cc2CN(C)C)cc1C: active
CN(C)C(=O)NC1(c2ccccc2)CCN(CCC[C@]2(c3ccc(Cl)c(Cl)c3)CCCN(C(=O)c3ccccc3)C2)CC1: inactive
CCN(CC)CCOc1ccc(C(=C(Cl)c2ccccc2)c2ccccc2)cc1: active

Proceed to the following item.
**Query** Identify the outcome logged in this assay for the molecule shown: OCC(O)CO
**Result** inactive

====

# Read-out: Cytochrome P450 2C19 (Homo sapiens) (UniProt P33261)
# Sequence (P33261 whole entry, looked up): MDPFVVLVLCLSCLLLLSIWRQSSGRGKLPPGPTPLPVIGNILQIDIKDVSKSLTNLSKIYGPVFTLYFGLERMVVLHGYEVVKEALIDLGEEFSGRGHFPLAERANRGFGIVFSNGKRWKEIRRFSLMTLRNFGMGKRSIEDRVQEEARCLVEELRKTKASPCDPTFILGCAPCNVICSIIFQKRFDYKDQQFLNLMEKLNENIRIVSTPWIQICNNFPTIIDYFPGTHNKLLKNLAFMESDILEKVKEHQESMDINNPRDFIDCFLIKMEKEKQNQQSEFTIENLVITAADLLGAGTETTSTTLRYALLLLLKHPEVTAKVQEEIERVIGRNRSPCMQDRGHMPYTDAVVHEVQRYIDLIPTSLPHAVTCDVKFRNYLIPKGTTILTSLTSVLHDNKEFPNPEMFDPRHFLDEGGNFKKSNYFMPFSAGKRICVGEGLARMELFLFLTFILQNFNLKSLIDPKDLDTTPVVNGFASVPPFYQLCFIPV
# Test name: LTEA_HepaRG_CYP2C19: Life Technologies and Expression Analysis (LTEA) Assay for CYP2C19 using HepaRG (AID 2283482)
# Setup conditions: mRNA level, 48 h; actives raise or lower the signal
The source made the active and inactive calls. Rule for the calls: active = hit-call score of the fitted dose curve at least 0.9, where 1 is the maximum; inactive = score below 0.9.
Your response should consist of one outcome taken from label 1 for active, label 0 for inactive

Cc1occc(=O)c1O: label 0

**Query** Check the results log: what was the call for CC(=O)OC1CC(C)OC(C)O1 (configuration not stated) ?
**Result** label 0

**Query** What was the test verdict on CSc1ccc(Oc2ccc(S(N)(=O)=O)cc2CN(C)C)cc1C ?
**Result** label 0

**Query** Check the results log: what was the call for CCCCCCCCCCCCCCOS(=O)(=O)O ?
**Result** label 0

**Query** What did this assay record as the result for CC(C)COC(=O)CCCCC(=O)OCC(C)C ?
**Result** label 0

**Query** Outcome logged for CC(=O)S[C@H](C(=O)N[C@H]1Cc2ccccc2[C@H]2CCC[C@@H](C(=O)O)N2C1=O)C(C)C in this assay:
**Result** label 0

**Query** Record lookup: outcome of this test for CC(C)c1cccc(C(C)C)c1NC(=O)NS(=O)(=O)c1cc(C(C)(C)O)co1 ?
**Result** label 1

**Query** Please state the recorded outcome for this compound: C=CCc1ccc(OC)c(OC)c1
**Result** label 0

**Query** Record lookup: outcome of this test for NC(=Nc1ccccc1)Nc1ccccc1 ?
**Result** label 0

**Query** For CCCCCCCC(=O)OC , which call appears in the assay record?
**Result** label 0

**Query** Given Nc1nc(Cl)nc2c1ncn2[C@H]1C[C@H](O)[C@@H](CO)O1 , state the outcome it received in this test.
**Result** label 1

**Query** Assay outcome for O=C1c2c(O)cccc2Cc2cccc(O)c21 : what was it?
**Result** label 0

**Query** Entry CCCCCCCCCC[N+](C)(C)[O-] : call = ?
**Result** label 0

**Query** Hello, I am checking results. What call was entered for Cc1cn([C@H]2C=C[C@@H](CO)O2)c(=O)[nH]c1=O ?
**Result** label 0

**Query** What did the test return for CS(=O)(=O)c1ccc([C@@H](C[C@H]2CCC(=O)C2)C(=O)Nc2cnccn2)cc1Cl ?
**Result** label 1

**Query** Field: outcome | Entry: C/C=C/C=C/C(=O)O
**Result** label 0

**Query** What is the recorded call for this compound in the test? CC(COCC(C)OC(=O)c1ccccc1)OC(=O)c1ccccc1 (configuration not stated)
**Result** label 0
